- tested on: T1, Fc-tagged Fas (recombinant extracellular domain of Fas with a C-terminal Fc) (human, UniProt P25445 26-173)
- T1 construct: human Fas (CD95) extracellular domain; also called Fas-IgG1 Fc; IgG4-Fc-tagged Fas; source: FreeStyle CHO-S cells, purified (protein A columns); not shown: Fc (IgG4 in the methods, IgG1 in the results), C-terminal, kept
- T1 sequence (looked up): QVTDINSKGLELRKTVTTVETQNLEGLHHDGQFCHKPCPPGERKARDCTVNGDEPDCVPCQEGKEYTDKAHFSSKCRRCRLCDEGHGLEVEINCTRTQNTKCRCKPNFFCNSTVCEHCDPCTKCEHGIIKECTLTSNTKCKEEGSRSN
- assay details: ELISA; Fc-tagged Fas (2 μg/ml) coated on 96-well plates; His-tagged FasL (single or tandem) in 2-fold dilutions from 50 to 0.048 nM, 1 h at 37 °C
- condition description: both partners purified
recorded metric: binding result

Problem: So what does the record say about binding result for His_FasL^WT-G277S (tandem: wild-type FasL unit and G277S unit) (ligand, human, linker between the His tag and the first FasL unit; linker between the two FasL units; source: CHO expression system, purified (HisTrap Ni Sepharose); not shown: His7, N-terminal, kept) GGSPSPPPEKKELRKVAHLTGKSNSRSMPLEWEDTYGIVLLSGVKYKKGGLVINETGLYFVYSKVYFRGQSCNNLPLSHKVYMRNSKYPQDLVMMEGKMMSYCTTGQMWARSSYLGAVFNLTSADHLYVNVSELSLVNFEESQTFFGLYKLGGGSGGGSGGGSPSPPPEKKELRKVAHLTGKSNSRSMPLEWEDTYGIVLLSGVKYKKGGLVINETGLYFVYSKVYFRGQSCNNLPLSHKVYMRNSKYPQDLVMMEGKMMSYCTTGQMWARSSYLGAVFNLTSADHLYVNVSELSLVNFEESQTFFSLYKL ?
Result: binds

Problem: Can you handle His_FasL^D164A (printed as His_FasL^D163A in Table 1) (ligand, human, linker between the His tag and FasL; source: FreeStyle CHO-S cells, transfected, purified (Ni-Sepharose HisTrap); not shown: His7, N-terminal, kept) GGSPSPPPEKKELRKVAHLTGKSNSRSMPLEWEATYGIVLLSGVKYKKGGLVINETGLYFVYSKVYFRGQSCNNLPLSHKVYMRNSKYPQDLVMMEGKMMSYCTTGQMWARSSYLGAVFNLTSADHLYVNVSELSLVNFEESQTFFGLYKL next?
Result: binds

Problem: Next up: His_FasL^E270A (ligand, human, linker between the His tag and FasL; source: FreeStyle CHO-S cells, transfected, purified (Ni-Sepharose HisTrap); not shown: His7, N-terminal, kept) GGSPSPPPEKKELRKVAHLTGKSNSRSMPLEWEDTYGIVLLSGVKYKKGGLVINETGLYFVYSKVYFRGQSCNNLPLSHKVYMRNSKYPQDLVMMEGKMMSYCTTGQMWARSSYLGAVFNLTSADHLYVNVSELSLVNFAESQTFFGLYKL
Result: binds
